property measured: melting point

compound=Cl.O=C(N[C@H](CN1CCCC1)c1ccccc1)C1(c2ccccn2)CC1 measurement="107.1 to 107.3 °C"

Name the recorded melting point for NC(=O)c1cccc([C@@H](CN2CCCC2)NC(=O)C2(c3ccc4oc(=O)[nH]c4c3)CC2)c1 .
139 to 141 °C

Name the recorded melting point for CS(=O)(=O)Nc1cccc([C@@H](CN2CCCC2)NC(=O)C2(c3ccc4oc(=O)[nH]c4c3)CC2)c1 (stereo in doubt) .
114 to 116 °C

Name the recorded melting point for CS(=O)(=O)Nc1cc(C2(C(=O)N[C@H](CN3CCCC3)c3ccccc3)CC2)ccc1F (stereo in doubt) .
67 to 69 °C

Name the recorded melting point for NC(=O)c1cccc(C2(C(=O)N[C@H](CN3CCCC3)c3ccccc3)CC2)c1 (stereo in doubt) .
120 to 121 °C

Name the recorded melting point for CS(=O)(=O)Nc1cc(C2(C(=O)N[C@H](CN3CCCC3)c3ccccc3)CC2)ccc1F.Cl (stereo in doubt) .
130 °C

Name the recorded melting point for COc1cccc([C@@H](CN2CC[C@H](O)C2)NC(=O)C2(c3ccc4oc(=O)[nH]c4c3)CC2)c1 .
125 to 127 °C

Name the recorded melting point for Cc1cc(C2(C(=O)N[C@H](CN3CCCC3)c3ccccc3)CC2)ccc1NS(C)(=O)=O (stereo in doubt) .
92 to 94 °C

* * *

property measured: melting point

molecule="C/C(=N/O)c1cc(C2(C(=O)N[C@H](CN3CCCC3)c3ccccc3)CC2)ccc1O (stereo in doubt)" measurement="158.5 to 158.8 °C"
molecule=O=C(N[C@H](CN1CC[C@H](O)C1)c1ccccc1)C1(c2ccc3oc(=O)[nH]c3c2)CC1 measurement="142 to 144 °C"

Name the recorded melting point for Cl.O=C(N[C@H](CN1CCCC1)c1ccccc1)C1(c2cccc(OCc3ccccc3)c2)CC1 .
118 to 120 °C

Name the recorded melting point for O=C(O)COc1cccc(C2(C(=O)N[C@H](CN3CCCC3)c3ccccc3)CC2)c1 (stereo in doubt) .
124 to 125 °C

* * *

property measured: melting point

compound=Cl.O=C(N[C@H](CN1CCCC1)c1ccccc1)C1(c2ccccc2)CCCCC1 property_measured="melting point" measurement="204 to 205 °C"
compound=Cl.O=C(N[C@H](CN1CCCC1)c1ccccc1)C1(c2cnc3ccccc3c2)CC1 property_measured="melting point" measurement="176 to 178 °C"
compound=CS(=O)(=O)Nc1cccc(C2(C(=O)N[C@@H](CN3CCCC3)c3cccc(OCc4ccccc4)c3)CC2)c1 property_measured="melting point" measurement="70 to 72 °C"
compound=O=C(N[C@H](CN1CCCC1)c1cccc(-c2nn[nH]n2)c1)C1(c2ccc3oc(=O)[nH]c3c2)CC1 property_measured="melting point" measurement="107 to 109 °C"
compound=O=C(N[C@H](CN1CCCC1)c1cccc(OCc2ccccc2)c1)C1(c2ccc3oc(=O)[nH]c3c2)CC1 property_measured="melting point" measurement="94 to 96 °C"

Name the recorded melting point for Cl.O=C(N[C@H](CN1CCCC1)c1ccccc1)C1(c2cccnc2)CC1 .
150 to 152 °C

Name the recorded melting point for O=C(N[C@H](CN1CCCC1)c1ccccc1)C1(c2ccc3c(c2)C=CS(=O)(=O)N3)CC1 .
163 to 165 °C

Name the recorded melting point for N#Cc1cccc([C@@H](CN2CCCC2)NC(=O)C2(c3ccc4oc(=O)[nH]c4c3)CC2)c1 (stereo in doubt) .
106 to 108 °C

Name the recorded melting point for CC(C)(C)OC(=O)N[C@H]1CCN(C[C@@H](NC(=O)C2(c3cccc(NS(C)(=O)=O)c3)CC2)c2ccccc2)C1 .
66.3 to 66.5 °C

Name the recorded melting point for CS(=O)(=O)Nc1cc(C2(C(=O)N[C@H](CN3CCCC3)c3ccccc3)CC2)ccc1Cl .
280 to 281 °C
